experimental target: human PDE10A (Homo sapiens, UniProt Q9Y233)
Construct: Full-length human PDE10A cDNA is amplified using PCR; supernatant of the sonicated lysate after 10,000 g
Sequence (Q9Y233 1-779 isoform Q9Y233-1): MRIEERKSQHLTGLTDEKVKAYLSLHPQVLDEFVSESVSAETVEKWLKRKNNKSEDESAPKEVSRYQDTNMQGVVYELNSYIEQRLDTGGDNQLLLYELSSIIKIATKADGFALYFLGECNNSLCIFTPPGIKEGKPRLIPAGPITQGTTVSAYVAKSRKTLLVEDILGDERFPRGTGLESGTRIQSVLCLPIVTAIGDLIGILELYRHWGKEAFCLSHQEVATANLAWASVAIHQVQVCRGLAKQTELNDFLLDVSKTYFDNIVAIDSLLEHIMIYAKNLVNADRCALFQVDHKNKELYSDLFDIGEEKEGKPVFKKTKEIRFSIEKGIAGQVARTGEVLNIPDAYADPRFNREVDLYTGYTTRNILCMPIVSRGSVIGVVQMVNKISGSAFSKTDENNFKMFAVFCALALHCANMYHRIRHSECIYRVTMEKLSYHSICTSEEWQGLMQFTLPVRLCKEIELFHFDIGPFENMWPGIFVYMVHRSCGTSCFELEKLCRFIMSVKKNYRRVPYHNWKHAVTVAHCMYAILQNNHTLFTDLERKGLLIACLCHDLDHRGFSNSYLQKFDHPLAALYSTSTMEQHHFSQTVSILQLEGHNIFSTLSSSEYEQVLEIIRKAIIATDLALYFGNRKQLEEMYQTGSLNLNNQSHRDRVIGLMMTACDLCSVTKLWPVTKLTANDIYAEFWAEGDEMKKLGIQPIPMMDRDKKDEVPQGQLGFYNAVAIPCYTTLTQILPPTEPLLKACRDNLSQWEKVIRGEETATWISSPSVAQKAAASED
assay: PDE10A inhibition assay (IMAP fluorescence polarization)
setup conditions: hPDE10A enzyme from transfected HEK293 cell lysate, fluorescein-labeled cAMP/cGMP
pIC50: −log10 of the molar value.
readout type: pIC50

line notation: Cn1cc(-c2ccncc2)c(-c2ccc(C#Cc3ncc4ccccc4n3)cc2)n1
pIC50: ≥ 8.00
//
line notation: FCCn1cc(-c2ccncc2)c(-c2ccc(C#Cc3ccc4ccccc4n3)cc2)n1
pIC50: ≥ 8.00
//
line notation: Cn1cc(-c2ccc(O)cc2)c(-c2ccc(C#Cc3ccc4ccccc4n3)cc2)n1
pIC50: 7.00 to 8.00

## Task GET pIC50 | system: human PDE10A (Homo sapiens, UniProt Q9Y233) | item: `Cn1cc(-c2ccncc2)c(-c2ccc(C#Cc3cccc(C4CC4)n3)cc2)n1`
## Result 7.00 to 8.00
